System: CRL-7250
Assay: Cytotoxic Profiling of Annotated Libraries Using Quantitative High-Throughput Screening (AID 1296008); further: on the % scale 0 is the no-effect control and ±100 the full control effect; nearly all actives have a fitted effect of over 60% in size
Details: Five cell lines viability, CellTiter-Glo ATP luminescence, 48-72 h; active compounds read low
Description: Cell-based phenotypic screening is a commonly used approach to discover biological pathways, novel drug targets, chemical probes and high-quality hit-to-lead molecules. […] A pintool (Kalypsys) was used to transfer 23 nL of compound solution to the 1536-well assay plates. […] Plates were left at room temperature for 10 min before imaging the ATP-coupled luminescence using a ViewLux microplate imager (PerkinElmer, Waltham, MA).
Records with an inconclusive call do not appear.
propertyMeasured: max response (%)
Number in %, nothing else.

- O=c1[nH]c(=O)n([C@H]2O[C@H](CO)[C@@H](O)[C@@H]2O)cc1/C=C\Br: -8.24

Query: Recorded max response of CC1CCCCN1CCCOC(=O)c1ccc(OC2CCCCC2)cc1 (stereo not given) , please.
Response: -16.2

Query: Which measured max response value corresponds to O=c1[nH]c2ccccc2c(=O)n1CCCl ?
Response: -4.5

Query: Dear colleague, I am looking for the recorded max response of the following compound: Cc1ccc(-c2ccccc2C#N)cc1
Response: 2.16

Query: Entry CCCC(=O)c1cc(O)c(O)cc1O : reported max response = ?
Response: -22.6

* * *

Test: Cell Viability - LYMP1-002 - Assay at 16 hr (AID 948)
Conditions: LYMP1-002 lymphoblastoid cell viability; series mostly up to 92.2 µM
Inconclusive results are not listed. Active and inactive are the calls of the source. Calls come from the whole dose curve; as a rule, active = well fitted cell-killing curve with a large enough effect; inconclusive = small, poorly fitted or top-dose-only effect; inactive = flat fitted curve, though single readings scatter.
Select the correct class. Options are TRUE (active), FALSE (inactive) and nothing else.

Use the examples below as a reference point.
* Nc1ccc(O)cc1 | TRUE
* OCc1c[nH]c2ccccc12 | FALSE
* COc1cc(C=O)ccc1O | FALSE
* c1ccc2occc2c1 | FALSE

Query: Which outcome did this test record for the compound Nc1c2ccccc2nc2ccccc12 ?
Response: TRUE

Query: Could you check what this test reported for C1=CC2C3C=CC(C3)C2C1 (stereo unspecified) ?
Response: FALSE

* * *

Test system: HEK293
Experiment: Cytotoxic Profiling of Annotated Libraries Using Quantitative High-Throughput Screening (AID 1296008); further: on the % scale 0 is the no-effect control and ±100 the full control effect; nearly all actives have a fitted effect of over 60% in size
Settings: Five cell lines viability, CellTiter-Glo ATP luminescence, 48-72 h; active compounds read low
Results filed as inconclusive are left out.
Catalogue of max response readings, one per entry.
Give the value, in units of %, as a plain number.

Consider the reported max response for these compounds:
* C[C@@H]1CCC[C@H](C)N1CCCC(O)(c1ccccc1)c1ccccn1 (stereo partly drawn) | -3.44
* Brc1ccc([C@H]2CN3CCSC3=N2)cc1 | 3.24
* Cc1cccc(C)c1NC(=O)c1ccc(N)cc1 | -2.32
* COC(=O)c1cc(Cl)c(NC(C)=O)cc1OC | -2.05
* CN(CC1(C)CCCO1)S(=O)(=O)c1ccc(Cl)c(S(N)(=O)=O)c1 (stereo not drawn) | -6.48

Query: Entry CCc1cccc2c(CCO)c[nH]c12 has what max response?
Response: -6.21

Query: Quick one: max response of OCCc1ccccc1 ?
Response: -1.38

Query: Recorded max response for CC(=O)N(CC(=O)N(C)C)c1ccccc1 , please?
Response: -63.5

* * *

Test: qHTS of pediatric cancer cell lines to identify multiple opportunities for drug repurposing: Primary screen for SK-N-SH cells (AID 1347098); further: nearly all actives have a fitted effect of over 65% in size
Conditions: SK-N-SH viability, CellTiter-Glo luminescence, 48 h; series mostly up to 57 µM
Inconclusive results are not listed. Active and inactive are the calls of the source. Calls follow the shape of the dose curve; as a rule, active = well fitted cell-killing curve with a large enough effect; inconclusive = small, poorly fitted or top-dose-only effect; inactive = no such curve, though single readings can be large or run the other way.
Write down the outcome that applies. Available outcomes: active, inactive

Worked examples, 3 compounds total:
* CN1CCCN(C(c2ccccc2)c2ccc(Cl)cc2)CC1 (stereo not given) | active
* O=C1CC(c2ccc(Cl)cc2)CC(=O)N1 | inactive
* CCCCCOc1ccc(C2SC(=O)NC2=O)cc1OCC (stereo not given) | inactive

Query: Lab log entry: Cc1cc(C(C)(C)C)c(O)c(C(C)(C)C)c1 — outcome as called in the assay?
Response: inactive

Query: Record lookup: outcome of this test for O=C(O)C(=O)Nc1cccc(-c2nn[nH]n2)c1 ?
Response: inactive

Query: Tell me the assay call for CCOC(=O)N1CCC(n2c(=O)[nH]c3cc(Cl)ccc32)CC1 please.
Response: inactive

Query: I'd appreciate the recorded outcome for COC(=O)c1cc(S(N)(=O)=O)ccc1OC from this test.
Response: inactive

Query: # lookup: test call for CCN(CC)C(=O)C1CN2CCc3cc(OC)c(OC)cc3C2CC1OC(C)=O (stereo not given)
Response: inactive

* * *

System: WaGa
Test: qHTS assay to identify novel small-molecules to repurpose for Merkel cell carcinoma treatment (AID 1296009); further: nearly all actives have a fitted effect of over 60% in size
Conditions: MCC and control cell lines, CellTiter-Glo viability, 72 h; series mostly up to 46 µM
Excerpt: MCC is a rare and aggressive neuroendocrine skin cancer with limited treatment options. Approximately 80% of MCCs have the Merkel cell polyomavirus (MCPyV) DNA integrated into the host genome (virus-positive: VP-MCC) and viral oncogenes drive oncogenesis. The remaining MCCs are virus-negative (VN-MCC) and are caused by UV mutagenesis. […] Using cell viability as a readout (CellTiter-Glo assay) we found both overlapping and distinct drugs that can be repurposed for the treatment of VP-MCC and VN-MCC. […]
Results filed as inconclusive are left out. The source made the active and inactive calls. The call rests on the fitted dose curve; in most records, active means well fitted inhibition curve with a large enough effect; inconclusive means small, poorly fitted or top-dose-only effect; inactive means flat fitted curve, though single readings scatter.
In this exercise, the only acceptable responses are label 1 = active, label 0 = inactive

As a guide, the following entries are already answered.
• CCc1cc2cc(OC)c(OC)cc2c(Cc2ccccc2)n1 = label 0
• CCn1ccc(NS(=O)(=O)c2ccc(N)cc2)nc1=O = label 0
• CSCC[C@H](NC(=O)[C@H](Cc1c[nH]c2ccccc12)NC(=O)CCNC(=O)OC(C)(C)C)C(=O)N[C@@H](CC(=O)O)C(=O)N[C@@H](Cc1ccccc1)C(N)=O = label 0
• COc1cc(NS(=O)(=O)c2ccc(N)cc2)nc(C)n1 = label 0
• CCOC(=O)C1=C(C)NC(C)=C(C(=O)OCC)C1c1ccccc1/C=C/C(=O)OC(C)(C)C = label 1

Query: Just curious, what result did CC(C)(C)c1nnc(NS(=O)(=O)c2ccccc2)s1 get here?
Response: label 0

Query: # fetch the recorded call for Nc1nnnn1-c1ccccc1 here
Response: label 0

Query: Please indicate how the test categorized Cc1nc([N+](=O)[O-])cn1-c1ccc([N+](=O)[O-])cc1 .
Response: label 0

Query: What is the recorded call for this molecule in the test? C=CC[N+]1([C@H]2C[C@H]3[C@@H]4CC[C@H]5C[C@H](OC(C)=O)[C@@H](N6CCCCC6)C[C@]5(C)[C@H]4CC[C@]3(C)[C@H]2OC(=O)CC)CCCCC1
Response: label 0

Query: How did this test come out for CC(=O)N(CC(O)CO)c1c(I)c(C(=O)NCCO)c(I)c(C(=O)NCC(O)CO)c1I (stereo not given) ?
Response: label 0

Query: Dear all, I need the recorded test outcome for CN1[C@@H]2CC[C@H]1CC(NC(=O)n1c(=O)[nH]c3ccccc31)C2 (stereo not given in full) , thank you.
Response: label 0

Query: Could you kindly confirm the outcome this assay logged for Fc1ccc(C(c2ccc(F)cc2)N2CCNCC2)cc1 ?
Response: label 0

Query: Status in this test for COc1cc2c(cc1OC)CN(C(=O)[C@H](C)N[C@@H](CCc1ccccc1)C(=O)O)[C@H](C(=O)O)C2 ?
Response: label 0

Query: GET /call?item= COC(=O)/C=C(/C)N returns the recorded outcome of this test.
Response: label 0

Query: Recorded test outcome, item CCCc1c2oc(C(=O)O)cc(=O)c2cc2c(=O)cc(C(=O)O)n(CC)c12
Response: label 0

* * *

Experiment: A High-Content qHTS Against Drug Library for the Identification of Small Molecules that Inhibit DYT1 Early Onset Primary Dystonia-Associated Cell Pathology (AID 1645839)
Details: HEK293 Flp-In EGFP-delE TorsinA, punctate imaging, 48 h; series mostly up to 46.1 µM
Description: Nicole Calakos M.D., Ph.D. Duke University School of Medicine, Durham, NC […] The bioassay described herein is a high-content image screen with two readouts. The "%pathology" readout is the primary qHTS data channel, while the "cellcount" is the counterscreen qHTS channel. Desired active compounds are those that show inhibition in %pathology channel but no activity or minimal toxicity in cellcount readout. […]
Inconclusive results are not listed. Activity calls are given as the source filed them. The call rests on the fitted dose curve. Where a SMILES comes first, the peptide text is derived from it. [ ]: non-standard residue; d: D form. pGlu = O=C1CC[C@@H](C(=O)O)N1
Allowed answers: Yes (active), No (inactive)

Solved entries (count: 3):
* CNC[C@H](O)[C@@H](O)[C@H](O)[C@H](O)CO | No
* Nc1ccc([N+](=O)[O-])c(C(F)(F)F)c1 | No
* O=S(=O)(O)c1ccc2nc(-c3ccccc3)[nH]c2c1 | No

Query: Returns: the outcome recorded for COc1ccc2nc(SCc3ncc(C)c(OC)c3C)[nH]c2c1 in this assay.
Response: No

Query: // param item: CCNC(=O)[C@@H]1CCCN1C(=O)[C@H](CCCN=C(N)N)NC(=O)[C@H](CC(C)C)NC(=O)CNC(=O)[C@H](Cc1ccc(O)cc1)NC(=O)[C@H](CO)NC(=O)[C@H](Cc1c[nH]c2ccccc12)NC(=O)[C@H](Cc1cnc[nH]1)NC(=O)[C@@H]1CCC(=O)N1 ([pGlu]HWSYGLRP-NHEt) ; yields the recorded call
Response: No

Query: Look up the recorded call for c1ccc2c(c1)CCc1ccccc1N2 in this test.
Response: No
